Values compiled from ChEMBL document CHEMBL4000234.

- System: Vero
- assay comment: Cytotoxicity against African green monkey Vero cells assessed as growth inhibition by CellTiter 96 non-radioactive cell proliferation colorimetric assay
- Type: cell-based
- applied conditions: chlorocebus sabaeus, vero
Kindly apply the following: YES if CC50 is less than 60 µM, NO in every other case.

Please review the following examples before continuing.
# compound, discrete label
rows = [
    ("CC1(C)CC(=O)c2c(Cc3ccc(F)cc3Cl)nc(-c3cccnc3)nc2C1", "NO"),
    ("CC(=O)NC1=C(C)NC(c2ccccn2)=NC1c1ccc(F)cc1Cl (stereo unspecified)", "NO"),
    ("COC(=O)c1c(CSc2ccccc2)nc(-c2ccccn2)nc1Cc1ccccc1", "YES"),
    ("CC1=C(Cl)C(c2ccc(F)cc2Cl)N=C(c2ccccn2)N1 (stereo unspecified)", "YES"),
    ("COCCOCc1nc(-c2ccccn2)nc(Cc2ccccc2)c1C(=O)OC", "NO"),
    ("COC(=O)c1c(Cc2ccc(F)cc2Cl)nc(-c2ccccn2)nc1CN1CCOCC1", "NO"),
    ("COC(=O)C1=C(CN2CCOCC2)NC(c2ccccn2)=NC1c1ccc(F)cc1Cl (racemic)", "NO"),
    ("CC1(C)CC(=O)C2=C(C1)NC(c1cccnc1)=NC2c1ccc(F)cc1Cl (racemic)", "NO"),
    ("CC1=C(C(=O)OCC(F)(F)F)C(c2ccc(F)cc2Cl)N=C(c2ccccn2)N1 (stereo unspecified)", "NO"),
    ("CC(=O)NC1=C(CN2CCOCC2)NC(c2ccccn2)=NC1c1ccc(F)cc1Cl (stereo unspecified)", "YES"),
]

Lookup: Please check: CC50 for CC1=C(I)C(c2ccc(F)cc2Br)N=C(c2nccs2)N1 (stereo unspecified) , strictly under 60 µM or not?
Found: NO

Lookup: Item CC1(C)CC(=O)c2c(Cc3ccc(F)cc3Cl)nc(-c3ccncc3)nc2C1 : CC50 beneath 60 µM, strictly?
Found: YES

* * *

- Tested on: HepG2
- assay comment: Cytotoxicity against human HepG2 cells assessed as growth inhibition by CellTiter 96 non-radioactive cell proliferation colorimetric assay
- Type: cell-based
- applied conditions: hepg2
The following compounds are shown together with reported CC50 values.

# compound, CC50
records = [
    ("COC(=O)C1=C(C)NC(c2ccccn2)=NC1Cc1ccccc1 (configuration not stated)", "> 100 µM"),
    ("CC1=C(C(=O)SC(C)C)C(c2ccc(F)cc2Cl)N=C(c2ccccn2)N1 (configuration not stated)", "> 100 µM"),
]

# ---- query compound ----
Lookup: Record COC(=O)c1c(Cc2ccccc2)nc(-c2ccccn2)nc1CN1CCOCC1 : what is its CC50 with HepG2?
Found: > 100 µM

* * *

- Test system: CCRF-CEM
- assay comment: Cytotoxicity against human CEM cells assessed as growth inhibition by CellTiter 96 non-radioactive cell proliferation colorimetric assay
- Format: cell-based
- applied conditions: ccrf-cem
In plain terms, low CC50, meaning strictly below 20 µM, gives yes (1), and everything else gives no (0).

The following compounds have reported results that may help.
# compound, discrete label
data = [
    ("COC(=O)C1=C(Cn2cc[n+](C)c2)NC(c2ccccn2)=NC1c1ccc(F)cc1Cl (stereo not given)", "no (0)"),
    ("COC(=O)C1=C(CN2CCN(C)CC2)NC(c2ccccn2)=NC1Cc1ccccc1 (stereo not given)", "yes (1)"),
    ("CC(=O)NC1=C(CN2CCOCC2)NC(c2ccccn2)=NC1c1ccc(F)cc1Cl (stereo not given)", "no (0)"),
    ("CC1=C(C(=O)SC(C)C)C(c2ccc(F)cc2Cl)N=C(c2ccccn2)N1 (stereo not given)", "yes (1)"),
]

Lookup: Please determine if CC(=O)NC1=C(C)NC(c2ccccn2)=NC1c1ccc(F)cc1Cl (stereo not given) is below 20 µM in terms of CC50.
Found: no (0)

Lookup: Take the compound COC(=O)c1c(Cc2ccccc2)nc(-c2ccccn2)nc1CN1CCN(C)CC1 and say whether its CC50 is less than 20 µM.
Found: no (0)

Lookup: Report whether reported CC50 is lower than 20 µM (strictly) for Fc1ccc(C2N=C(c3nccs3)NC(CN3CCOCC3)=C2I)c(Br)c1 (stereo not given)
Found: no (0)

Lookup: Criterion: CC50 strictly below 20 µM. Is it met by CC1(C)CC(=O)c2c(Cc3ccc(F)cc3Cl)nc(-c3ccncc3)nc2C1 ?
Found: no (0)

Lookup: Lab log: compare recorded CC50 with 20 µM; is it strictly lower for CC1=C(Br)C(c2ccc(F)cc2Cl)N=C(c2ccccn2)N1 (stereo not given) ?
Found: no (0)

Lookup: Answer whether the compound COC(=O)C1=C(CN=[N+]=[N-])NC(c2ccccn2)=NC1c1ccc(F)cc1Cl (stereo not given) has CC50 strictly less than 20 µM
Found: no (0)

* * *

- assay comment: Cytotoxicity against human CEM cells assessed as growth inhibition by CellTiter 96 non-radioactive cell proliferation colorimetric assay
- Type: cell-based, CCRF-CEM
- applied conditions: CEM cells (CCRF-CEM)
measurement type: CC50

Lookup: Suppose we examine the compound Nc1ccn([C@@H]2CS[C@H](CO)O2)c(=O)n1 ; what CC50 value has been reported?
Found: > 100 µM

* * *

Quick list: CC50 per entry.
- System: Vero
- assay comment: Cytotoxicity against African green monkey Vero cells assessed as growth inhibition by CellTiter 96 non-radioactive cell proliferation colorimetric assay
- Type: cell-based
- applied conditions: chlorocebus sabaeus, vero

# compound, CC50
rows = [
    ("Fc1ccc(C2N=C(c3nccs3)NC(CN3CCOCC3)=C2I)c(Br)c1 (stereo not drawn)", "> 100 µM"),
    ("CC1(C)CC(=O)c2c(Cc3ccc(F)cc3Cl)nc(-c3ccccn3)nc2C1", "29 µM"),
]

Next item in the queue.
Lookup: Recorded CC50 for COC(=O)C1=C(CS(=O)(=O)Cc2ccc(C)cc2)NC(c2ccccn2)=NC1c1ccc(F)cc1Cl (stereo not drawn) , please?
Found: ≥ 100 µM

* * *

- Tested on: Vero
- assay comment: Cytotoxicity against African green monkey Vero cells assessed as growth inhibition by CellTiter 96 non-radioactive cell proliferation colorimetric assay
- Type: cell-based
- applied conditions: chlorocebus sabaeus, vero
measurement type: CC50

# compound, value measured
data = [
    ("COC(=O)c1c(C)nc(-c2ccccn2)nc1Cc1ccccc1", "61 µM"),
    ("CCCC[n+]1ccn(CC2=C(C(=O)OC)C(c3ccc(F)cc3Cl)N=C(c3ccccn3)N2)c1 (centres undefined)", "> 100 µM"),
    ("CC1=C(C(=O)SC(C)C)C(c2ccc(F)cc2Cl)N=C(c2ccccn2)N1 (centres undefined)", "40 µM"),
]

With those in mind, consider the next compound.
Lookup: Can you look up the measured CC50 of CCS(=O)(=O)CC1=C(C(=O)OC)C(c2ccc(F)cc2Cl)N=C(c2ccccn2)N1 (centres undefined) for me?
Found: > 100 µM

* * *

Here, each record is paired with measured CC50 data.
- Test system: HepG2
- assay comment: Cytotoxicity against human HepG2 cells assessed as growth inhibition by CellTiter 96 non-radioactive cell proliferation colorimetric assay
- Assay type: cell-based
- applied conditions: hepg2

# compound, value measured
data = [
    ("COC(=O)C1=C(CN2CCOCC2)NC(c2ccccn2)=NC1c1ccc(F)cc1Cl (racemic)", "> 100 µM"),
    ("COC(=O)c1c(Cc2ccc(F)cc2Cl)nc(-c2ccccn2)nc1CN1CCOCC1", "69 µM"),
]

Lookup: Which measured CC50 belongs to CC1=C(Br)C(c2ccc(F)cc2Cl)N=C(c2ccccn2)N1 (centres undefined) , tested on HepG2?
Found: 79 µM

Lookup: # returns recorded CC50 (system: HepG2) for CC1(C)CC(=O)c2c(Cc3ccc(F)cc3Cl)nc(-c3ccncc3)nc2C1
Found: ≥ 100 µM

Lookup: // map Fc1ccc(C2N=C(c3ccccn3)NC(CN3CCOCC3)=C2I)c(Cl)c1 (centres undefined) to recorded CC50 (system: HepG2)
Found: > 100 µM

Lookup: Record Fc1ccc(C2N=C(c3nccs3)NC(CN3CCOCC3)=C2I)c(Br)c1 (centres undefined) : what is its CC50 with HepG2?
Found: > 100 µM

Lookup: Give the reported CC50 for CC1=C(Cl)C(c2ccc(F)cc2Cl)N=C(c2ccccn2)N1 (centres undefined) (system: HepG2).
Found: 98 µM

Lookup: Please state recorded CC50 (tested on HepG2) of CCOP(=O)(CC1=C(C(=O)OC)C(c2ccc(F)cc2Cl)N=C(c2ccccn2)N1)OCC (centres undefined)
Found: > 100 µM

Lookup: Quick check: CC50 on HepG2, item COC(=O)c1c(C)nc(-c2ccccn2)nc1Cc1ccccc1 ?
Found: 41 µM

Lookup: Identify the measured CC50 of COC(=O)C1=C(Cn2cc[n+](C)c2)NC(c2ccccn2)=NC1c1ccc(F)cc1Cl (centres undefined) for HepG2.
Found: > 100 µM

Lookup: // fetch HepG2 CC50 for CC1=C(I)C(c2ccc(F)cc2Br)N=C(c2nccs2)N1 (centres undefined)
Found: > 100 µM

Lookup: # query: CC50 | item CCCC[n+]1ccn(CC2=C(C(=O)OC)C(c3ccc(F)cc3Cl)N=C(c3ccccn3)N2)c1 (centres undefined) | system: HepG2
Found: 14 µM

Lookup: Look up CC50 with HepG2 for this compound: CC1=C(C(=O)OCC(F)(F)F)C(c2ccc(F)cc2Cl)N=C(c2ccccn2)N1 (centres undefined)
Found: > 100 µM

Lookup: What measured CC50 is associated with CC1(C)CC(=O)C2=C(C1)NC(c1cccnc1)=NC2c1ccc(F)cc1Cl (racemic) on HepG2?
Found: > 100 µM
